Target: TBK1 (Homo sapiens)
Construct: TBK1 and IKKε were expressed and purified as full length recombinant proteins
Sequence (Q9UHD2 1-729): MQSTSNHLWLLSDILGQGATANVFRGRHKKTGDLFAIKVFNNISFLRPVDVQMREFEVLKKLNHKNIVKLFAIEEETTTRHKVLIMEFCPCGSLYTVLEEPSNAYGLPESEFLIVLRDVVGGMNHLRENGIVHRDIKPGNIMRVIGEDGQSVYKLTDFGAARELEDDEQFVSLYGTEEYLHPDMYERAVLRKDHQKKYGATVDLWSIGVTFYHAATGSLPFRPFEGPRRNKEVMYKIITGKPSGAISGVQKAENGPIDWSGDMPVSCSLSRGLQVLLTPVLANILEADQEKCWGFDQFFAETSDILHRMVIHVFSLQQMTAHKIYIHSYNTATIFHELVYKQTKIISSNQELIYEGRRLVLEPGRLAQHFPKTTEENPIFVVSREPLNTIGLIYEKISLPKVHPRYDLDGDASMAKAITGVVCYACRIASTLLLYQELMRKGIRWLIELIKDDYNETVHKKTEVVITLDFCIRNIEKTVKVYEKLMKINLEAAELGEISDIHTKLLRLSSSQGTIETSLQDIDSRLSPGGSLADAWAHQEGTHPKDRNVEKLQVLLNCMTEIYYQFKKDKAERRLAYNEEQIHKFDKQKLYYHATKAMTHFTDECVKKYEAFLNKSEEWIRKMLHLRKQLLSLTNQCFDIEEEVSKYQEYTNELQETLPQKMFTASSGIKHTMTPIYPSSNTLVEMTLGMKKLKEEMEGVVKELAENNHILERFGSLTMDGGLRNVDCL
Experiment: TR-FRET enzymatic activity assay, TBK1; note: full length recombinant TBK1 at 2.5 nM
measured endpoint: IC50 (nM)

| compound | number |
| --- | --- |
| N#Cc1cc(-c2ccnc(NC(=O)[C@@H]3C[C@H]3c3cccnc3)c2)ccc1O[C@H]1CCN(C(=O)[C@@H](O)CO)CC1(F)F [Example 133] | 6.4 |
| C[C@H](O)C(=O)N1CC[C@H](Oc2ccc(-c3ccnc(NC(=O)C4CC4)c3)cc2C#N)[C@H](F)C1 | 15.2 |

[1] CON(C)C(=O)[C@@H]1C[C@H]1C(=O)Nc1cc(-c2ccc(OC3CCOCC3)c(C#N)c2)ccn1 (relative stereo)
[2] N#Cc1cc(-c2ccnc(NC(=O)[C@H]3C[C@H](O)C3)c2)ccc1O[C@H]1CCN(C(=O)CO)C[C@H]1F
[3] N#Cc1cc(-c2cc(NC(=O)C3CC3)ncn2)ccc1C(=O)NCC(F)F
[4] N#Cc1cc(-c2ccnc(NC(=O)[C@@H]3C[C@H]3c3cncnc3)c2)ccc1O[C@H]1CCN(C(=O)CO)C[C@H]1F
[5] N#Cc1cc(-c2cc(NC(=O)C3CC3)ncn2)ccc1O[C@H]1CCN(C(=O)c2nnc[nH]2)CC1(F)F
Q. Please list these compounds in decreasing order of IC50. Respond with an ordered listing of the labels, as requested.
A. 3, 1, 2, 4, 5

Hey, just so you know, these numbers are from patent US10316049B2.
